- STUDY_TARGET: Human TRPA1 expressing CHO cells (Homo sapiens)
- Construct: expressed in transfected cells; host or cells: CHO cells (G-418 selection)
- Sequence (O75762 whole entry): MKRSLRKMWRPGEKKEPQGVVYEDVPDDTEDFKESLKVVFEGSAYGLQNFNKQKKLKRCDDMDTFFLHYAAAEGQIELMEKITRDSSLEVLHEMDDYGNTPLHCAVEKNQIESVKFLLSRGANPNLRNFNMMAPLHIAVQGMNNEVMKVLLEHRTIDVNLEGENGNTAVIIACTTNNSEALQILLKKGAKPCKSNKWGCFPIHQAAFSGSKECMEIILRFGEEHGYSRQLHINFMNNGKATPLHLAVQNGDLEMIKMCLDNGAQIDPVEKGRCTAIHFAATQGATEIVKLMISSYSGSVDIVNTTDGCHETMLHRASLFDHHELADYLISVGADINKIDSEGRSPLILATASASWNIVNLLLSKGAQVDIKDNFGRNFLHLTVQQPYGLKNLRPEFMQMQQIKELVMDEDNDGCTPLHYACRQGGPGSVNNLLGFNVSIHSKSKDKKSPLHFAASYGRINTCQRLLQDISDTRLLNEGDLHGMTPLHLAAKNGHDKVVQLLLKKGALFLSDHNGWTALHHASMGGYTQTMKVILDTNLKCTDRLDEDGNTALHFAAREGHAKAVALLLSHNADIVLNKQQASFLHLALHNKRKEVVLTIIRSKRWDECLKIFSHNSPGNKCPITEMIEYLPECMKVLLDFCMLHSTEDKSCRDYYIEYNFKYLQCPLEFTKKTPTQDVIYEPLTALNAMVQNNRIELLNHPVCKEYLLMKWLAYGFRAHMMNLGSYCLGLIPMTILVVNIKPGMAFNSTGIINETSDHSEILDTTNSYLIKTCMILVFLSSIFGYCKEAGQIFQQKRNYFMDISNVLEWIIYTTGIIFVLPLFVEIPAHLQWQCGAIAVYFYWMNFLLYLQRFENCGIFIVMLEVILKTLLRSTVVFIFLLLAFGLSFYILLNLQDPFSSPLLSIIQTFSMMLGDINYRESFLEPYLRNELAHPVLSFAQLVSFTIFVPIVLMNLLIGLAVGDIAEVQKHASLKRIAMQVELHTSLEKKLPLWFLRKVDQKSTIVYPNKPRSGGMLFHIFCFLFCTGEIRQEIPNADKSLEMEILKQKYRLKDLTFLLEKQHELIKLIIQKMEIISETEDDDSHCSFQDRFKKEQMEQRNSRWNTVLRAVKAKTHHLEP
- PROTOCOL_NOTES: 45Calcium uptake assay, inhibition of AITC induced calcium uptake (human)
- Assay type: cell-based
- SETTINGS: human TRPA1 CHO cells, AITC 30 μM, compound 10.0 μM; read-out: Percentage inhibition at 10.0 μM
METRIC: inhibition at 10 µM (%)

> print(dat)
                               given.smiles               metric  recorded.result
1  Cc1sc2c(c1CC(=O)Nc1nc(-c3ccc(C(F)(F)F)c(F)c3)cs1)c(=O)n(C)c(=O)n2C  inhibition at 10 µM             99.9
2  Cn1c(=O)c2c(CC(=O)Nc3nc(-c4ccc(C(F)(F)F)c(F)c4F)cs3)scc2n(C)c1=O  inhibition at 10 µM             99.5
3  Cc1sc2c(c1CC(=O)Nc1nc(-c3ccc(C(C)(C)C)cc3)cs1)c(=O)n(C)c(=O)n2C  inhibition at 10 µM             98.8
4  Cc1sc2c(c1CC(=O)Nc1nc(-c3ccc(F)c(C(F)(F)F)c3)cs1)c(=O)n(C)c(=O)n2C  inhibition at 10 µM               99
5  Cn1c(=O)c2c(CC(=O)Nc3cc(-c4ccc(Cl)cc4)no3)csc2n(C)c1=O  inhibition at 10 µM             87.9
6  Cn1c(=O)c2c(CC(=O)Nc3nc(-c4ccc(OC(F)(F)F)c(F)c4)cs3)scc2n(C)c1=O  inhibition at 10 µM             94.4
